The compounds listed here are annotated with their LD50.
Assay notes: Acute intravenous toxicity (LD50) and therapeutic index, Table II
Conditions: in vivo; iv.

{"Compound": "CN(C)CCO/N=C1\\CCCCCC1Cc1ccccc1 (stereo not shown)", "Measurement units": "mg/kg", "LD50": 40}
{"Compound": "CC(C)N(CCCO/N=C1\\CCCC\\C1=C/c1ccccc1)C(C)C", "Measurement units": "mg/kg", "LD50": 12.5}
{"Compound": "CC(Cc1ccccc1)NCCC(c1ccccc1)c1ccccc1 (stereo not shown) [Prenylamine, reference compound]", "Measurement units": "mg/kg", "LD50": 11.5}
{"Compound": "CC(C)N(CCCO/N=C1\\CCCC\\C1=C/c1ccc(Cl)cc1)C(C)C", "Measurement units": "mg/kg", "LD50": 42}
